Reference source: the supplement of paper PMC10567573

Give protein stability index for every item shown.
- Protocol Text: protein stability index of a GFP-peptide fusion (GPS, HEK-293T) (PSI 1-6); higher = more stable;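 further: 24-mer peptide tiles fused after GFP, lentivirally expressed, FACS-sorted into six equal bins by GFP/DsRed ratio, decoded by Illumina sequencing, PSI is the read-weighted mean bin number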
- Measurement Parameters: treatment: DMSO; c terminus: a fixed tail appended
Answers are plain numbers.

Dear colleague, could you send me protein stability index for each of the items below? Thanks.
1. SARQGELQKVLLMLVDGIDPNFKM [EHMT1]
2. QSFTLRGDHRSPASAQKFSSRSTV [NET1]
3. FKAWLHNSGTDQEQIHLLLSSQCF [M1AP]
4. KGVDFQKFCMNGAALCALGKDCFL [ETS1]

[1.98, 3.92, 2.6, 2.62]

Okay, here is my list. What is protein stability index for each of these?
1. SSLTADLLSVDAFAAPSPATTASP [SNAP91]
2. YRGMLDTHHKLCTFILKNPPENSD [EIF5]
3. FSGGKSGGNKKSDGVKESSESTNT [CAMK2A]
4. CQILELLNAELEEKMMQEAEKLKA [CCDC89]

1. 4.65
2. 3.29
3. 5.25
4. 3.76

Fill in protein stability index for each of the 6 sequences listed.
1. FIMLSCVQLQRIPLSAVYRICLGK [TPRG1]
2. NTRFVVDPSIFTAQPNTMLGRMFG [BTBD10]
3. DLAEFAKKQPWWRKLFGQESGPSA [FUNDC2]
4. GLGNTWPGASGSAQSLDRLGIMGA [ATP23]
5. QDMSQVSGKESPPVSDTPDEGDEP [IKZF1]
6. ATPIVPVVPPTPPVVKKKGVKRKA [BRD3]

3.06
2.51
2.65
3.3
5.38
5.33
